# targetOrTestSystem: human 17β-HSD1 (Homo sapiens)
# Construct: In the cell free assay, the placental cytosolic enzyme was used
# Sequence (P14061 1-328): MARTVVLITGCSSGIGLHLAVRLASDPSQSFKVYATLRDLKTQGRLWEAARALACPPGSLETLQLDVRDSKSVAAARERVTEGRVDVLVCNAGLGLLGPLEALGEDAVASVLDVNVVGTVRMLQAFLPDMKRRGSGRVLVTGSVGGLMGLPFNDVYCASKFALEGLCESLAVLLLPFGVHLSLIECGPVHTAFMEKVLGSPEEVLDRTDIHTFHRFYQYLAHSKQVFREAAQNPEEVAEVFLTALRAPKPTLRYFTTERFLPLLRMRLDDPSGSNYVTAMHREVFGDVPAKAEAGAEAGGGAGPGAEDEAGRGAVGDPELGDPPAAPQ
# assay: 17β-HSD1 cell free assay (placental cytosolic enzyme, [3H]E1 to E2, HPLC radiodetection)
# measurementConditions: human placenta cytosolic fraction, [3H]E1 + E1 500 nM, NADH 500 µM; mean of three determinations
IC50: recorded values
Could you give the number and then its unit, please?

Example results:
O=C(Nc1cccc(O)c1)c1nc2ccc(O)cc2s1 [Compound 18]; 1.31 µM
O=C(c1cccc(O)c1)c1nc2ccccc2s1 [Compound 12]; 0.365 µM
O=C(c1cccc(O)c1)c1nc2ccc(O)cc2s1 [Compound 6]; 0.044 µM

Note down IC50 recorded for O=C(c1ccc(O)cc1)c1nc2ccc(O)cc2s1 [Compound 14]
0.243 µM
